Assay: soluble on expression in E. coli; label from the status in PepcDB or PDB records
measuredProperty: soluble on expression in E. coli

Look over these answered cases.
INSERT INTO results (sequencedata, reportedresult) VALUES
  ('MAHHHHHHMEQFLNQVAASNKTVKCIKGALQIYDTYGEVFSLVHERRYEEAGIICTHFSDHIGQLFLGTTDGNCLVYYHDERSGDEQRSGVEERSGDDLYGDADRCGVPPVGRKKKGGVLEYLHKGVKRKRERASFYTNSEHIYNLDSLPKEIKITDAGDVLIKKDLINAKVKMNPKLSSFTANAYEKKRQVGMYSKYIVDANPSGKDPSSSQTNKGNEYEEEDIVEKLRKREQSKQGGDYFMNAYKYTQPSAIIDYSSGEEQEYSQLLKKPKCPQCGVKNCVCGFMRSGGRRAR', 'not soluble'),
  ('MSTMKDEIEKVPASQYKGQDFQPLAEKSAIAHAKKYREEYEKLGEQFFKDNFSLNVKATNVVGSGDGAEVYVHCDDHDIVFNASIPFDMESIHEEGSMRSNDNGDTMSMMVGTVLSGFEYRANKEKMDNLEKYLKDKEDKYHYTGFTDEAITKTQNIGYQNNYFYITTSSTKLRDYRKHFEPLIKESDDDFKKHMKQLKSKKDTYINTEITTTLFSTLDEYDEKIIRKNTLSMAKEMRKEPSIPHNFTFHLLFSNNKLKINDPNISNNQINEYRVFDHDGFKNLEHHHHHH', 'soluble'),
  ('MGNASENFDIEDLMSYGDDLINLLNVKNGFDIISQSSEQFKALNFACHEDFNQIQGSIEDCKTKLYACKKKTEEAYSDIAAEDEIERLQKELDEEMEREFKLKDELR', 'soluble'),
  ('KMFFKVIDTLSDNYEKEMLLLEAEAKEQYYQELEKSSREVRKIKHDLKNMLLAICGKAKKQNEISEEIYKIIKELDESDKKIYTSNVVINTIINHKISQAKKLEIKTDVNIKVSKAIHIDYKDAGILLGNILDNAIEACEKIKKKERWIKIDMLHNKNTLFIEVCNSKGKELTNISKSSKSDAHNHGIGISSIKAITKKYDGYVEFVDKGEEFEVVVNLYGMSF', 'not soluble'),
  ('MANHELDQLRKQVDEINLQLLHLLNKRGEIVQKIGEQKQVQGTKRFDPVREREVLDMIAENNEGPFETSTVQHIFKTIFKASLELQEDDNRKALLVSRKKKQENTIVDVKGELIGNGTQTFIMGPCAVESLEQVRQVGQAMKDQGLKLMRGGAFKPRTSPYDFQGLGVEGLQILRQVADEFDLAIISEILNPNDVEMALDYVDVIQVGARNMQNFDLLRAVGKVNKPVLLKRGLAATIDEFINAAEYIIAQGNDQIILCERGIRTYERATRNTLDISAVPILKKETHLPVVVDVTHSTGRRDLLLPTAKAALAIGADAVMAEVHPDPAVALSDSAQQMDIPEFHRFMEELKGFKNKLS', 'not soluble');

Returns the measured soluble on expression in E. coli for the input sequence. Input: MLTIEPPSATFPASGGSSTHTITSVNESRMAFKVKSSNNEHYRVRPVYGFVEARGKMKFEIIRLEGPVKDDKIMLQYAEVPADETDAQAPFKAGAQQGDVTILLKTN
not soluble

====

Assay: soluble on expression in E. coli; label from the status in PepcDB or PDB records
measuredProperty: soluble on expression in E. coli

Worked set:
INSERT INTO assay_data (sequencedata, reportedresult) VALUES
  ('MNRFIIADATKCIGCRTCEVACAVSHHENQDCAALSPDEFISRIRVIKDHCWTTAVACHQCEDAPCANVCPVDAISREHGHIFVEQTRCIGCKSCMLACPFGAMEVVSSRKKARAIKCDLCWHRETGPACVEACPTKALQCMDVEKVQRHRLRQQPV', 'not soluble'),
  ('MGQWANLKAKVIQLWENTHESISQVGLLGDETGIIKFTIWKNAELPLLEQGESYLLRSVVVGEYNDRFQVQVNKNSSIEKLSEPIEVGLEHHHHHH', 'not soluble'),
  ('MNYHVYHSIDVVNGPGTRCTLFVSGCEHNCKGCYNKSTLNPNSGHLFTKELEDKIIADLNDTRIPRRGLSLSGGDPLHPMNCESVLKLVKRVKSECENKDIWMWTGYTLSELNPTQKEIVDLIDTLIDGRFEQDKADPSLDWRGSSNQIIHTFNVLLEHHHHHH', 'not soluble'),
  ('EVQLQESGPSLVKPSQTLSLTCSVTGDSVTSDFWSWIRKFPGNKLEYMGYISYSGSTYYHPSLKSRISITRDTSKNQYYLQLNSVTTEDTATYYCASWGGDVWGAGTTVTVSSAKTTAPSVYPLAPVCGDTTGSSVTLGCLVKGYFPEPVTLTWNSGSLSSGVHTFPAVLQSDLYTLSSSVTVTSSTWPSQSITCNVAHPASSTKVDKKI', 'soluble'),
  ('MTVPIAIIGTGIAGLSAAQALTAAGHQVHLFDKSRGSGGRMSSKRSDAGALDMGAQYFTARDRRFATAVKQWQAQGHVAEWTPLLYNFHAGRLSPSPDEQVRWVGKPGMSAITRAMRGDMPVSFSCRITEVFRGEEHWNLLDAEGQNHGPFSHVIIATPAPQASTLLAAAPKLASVVAGVKMDPTWAVALAFETPLQTPMQGCFVQDSPLDWLARNRSKPERDDTLDTWILHATSQWSRQNLDASREQVIEHLHGAFAELIDCTMPAPVFSLAHRWLYARPAGAHEWGALSDADLGIYVCGDWCLSGRVEGAWLSGQEAARRLLEHLQLEHHHHHH', 'soluble');

GET /values?readout=soluble on expression in E. coli&item= MGSDKIHHHHHHMASESNQVIQRLFQRFFRDELAGLSPADRAAFESEFEGRYGELLDRSSSATTTSFADLVGFGDGPIKPFDSLQMPLLRNDFDESIIPPQLQASAELYYIYQMDRMKLFQVVDVLRRLFQNGQIRIQRGPGARGLYILEKWRPIRYKRRDRLIAYRRVFNYGRAPVPAGAIVNRSFHFQLVAFMNAMSQYFQDLTIGQVIRGSSTINDRPFAALATVQRVGTDLRYHLDRSSYGNILALTRETGQYVQQIFELFDAPDIKKSFDANTKWDVIEAVANRHLGGATEMSERAKMADAGRRILQYIAENDFRTTITPAEFDADAKKMGAQADAWLAAYRLTREGRRFPGLDGDRVHWSYGLNRNTASRIAA
not soluble

What does the record list as soluble on expression in E. coli for MGSDKIHHHHHHMDHQIEDFLEHWLPLADDAWVLAVITQIQGSAYRKPGAMMLFHEFGQGVGMLSGGCLEADLRRHAQKAMQTKQVTCVTYDASDESDASYRLGCGGIVDIMLIPLLKENHDLGLIELVQAFRHGRSGFYQLPLVKAGTDARQYQAAFYPEALTPFPASDFVRTGVFTQEAGESLIIPLRPRFHLGIFGGGIDAKPIAAMADTLGWQVTVFDGRTAYARAADFPHAHIVKLTAGELTANHIAQLDCAVVMNHNLGLDAVALKVIQAHPLAYVALLGPAHRRDKVLGMAGLSTESFSGVFSAPAGLALGGELPSAVALSILAQCHGVLHGATLKHLDEIMR ?
not soluble

What value of measured soluble on expression in E. coli is listed for MGSDKIHHHHHHMLAKRIIACLDVKDGRVVKGTNFENLRDSGDPVELGKFYSEIGIDELVFLDITASVEKRKTMLELVEKVAEQIDIPFTVGGGIHDFETASELILRGADKVSINTAAVENPSLITQIAQTFGSQAVVVAIDAKRVDGEFMVFTYSGKKNTGILLRDWVVEVEKRGAGEILLTSIDRDGTKSGYDTEMIRFVRPLTTLPIIASGGAGKMEHFLEAFLAGADAALAASVFHFREIDVRELKEYLKKHGVNVRLEGL ?
soluble

Fill in: soluble on expression in E. coli of MGSDKIHHHHHHMSKGRHVCFLTGTLNAMAGAERMTAVIANALAESGHTVSILSLWDKDSCFPLHPAVGHEALFAERPSFKKAYLTTVAGIRRYCRERKVDVLVQVDTMLALLALPATVGLGVQHIAWEHCHFDEDLGRRARRYARRLAARYCKHVVVLTERDQLRWIEALQPRSQVVIIPNPLPFPFPEEPAPRTGKIVLAMGRLVNAKGFDVLIRAWQRVSAEVPDWKLVIHGEGEERPALSALIDELGLQDSVSLPGICRDATEAYREASIFCLSSRYEGFGLVLIEAMAFGLPIVSTNCEAGPRELLATGTVGLTVPVDAPTMLAASILDLIHQPDLALRFAHAERMFAKGYSLQQIGARWSDLTSARHGSMPQYS is ___
not soluble

Which soluble on expression in E. coli is listed for MARATTKQDLIMASNGQFEKLWVLIDGMSDDLQNATFADQMATAGKEAHWGRDKNLRDVLVHLYEWHQLLLNWINSNSKGERKPFLPEPYNWKTYSVMNVEFWKKHQQTPLAEAKDKLKESHRQVMALIETFSNDELFAKGVFDWTDTSTLGAYCVSATSSHYDWAMKKIKLHIKTGK ?
not soluble

What value of soluble on expression in E. coli has been recorded for this entry: MGTTLEVLRTGPLALVEDLGRPGLAHMGVTRSGAADRRSHTLANRLVANPGESATIEVTFGGFSARVCGGDVAIAVTGADTDPAVNGIPFGTNSIHHVHDGQVISLGAPHSGLRSYLAVRGGIDVTPVLGSRSYDVMSAIGPSPLRPGDVLPVGEHTDEFPELDQAPVAAIAEDVVELQVVPGPRDDWFVDPDILVRTNWLVTNRSDRVGMRLVGMPLEYRNPDRQLPSEGATRGAIQVPPNGFPVILGPDHPVTGGYPVIGVVTEEDIDKLGQVRPGQTVRLHWAYPRRPFETLESGKETAAAKFERQHMDSSTSAA
soluble
